# Test system: A498
# method_summary: NCI tumour cell line growth inhibition, 48 h
Active and inactive are the calls of the source. No stated cut-off is given here; in the data, active = GI50 up to about 1.1 µM and inactive = higher.
property_name: GI50

{"columns": ["compound", "property_name", "experimental_result"],
 "data": [
  ["CCCCCc1cccc(=O)o1", "GI50", "57.9 µM (inactive)"],
  ["CCCCOC(=O)C(NC(C(=O)OCCCC)c1cc(C(C)(C)C)c(O)c(C(C)(C)C)c1)c1cc(C(C)(C)C)c(O)c(C(C)(C)C)c1 (stereo not given)", "GI50", "> 100 µM (inactive)"],
  ["COC(=O)C1=CS/C(=C2\\S[C@@H]3[C@H](S2)[C@H]2C=C[C@@H]3C2)S1", "GI50", "4.52 µM (inactive)"],
  ["CC(C)(C)C1=CC(=N/N=c2\\scc(-c3ccccc3)n2-c2ccccc2)C=C(C(C)(C)C)C1=O", "GI50", "> 100 µM (inactive)"],
  ["O=C1C(C(O)(C(F)(F)F)C(F)(F)F)CCC1C(O)(C(F)(F)F)C(F)(F)F (stereo not given)", "GI50", "0.964 µM (active)"]
]}

---

# Tested on: NCI-H460
# method_summary: NCI tumour cell line growth inhibition, 48 h
Activity calls are given as the source filed them. Cut-off read from the data, not from the text of the source: active = GI50 up to about 1.1 µM and inactive = higher.

{"columns": ["molecule", "GI50"],
 "data": [
  ["O=NN(CCCl)C(=O)N[C@H]1CC[C@@H](C(=O)O)CC1", "49.3 µM (inactive)"],
  ["O=C(O)C1=C(C(=O)O)N(c2ccncc2)C(c2ccco2)=CC1c1ccccc1[N+](=O)[O-] (stereo not given)", "12.6 µM (inactive)"],
  ["O=C1c2nc3n(c2C(=O)c2c1nc1n2CCC1)CCC3", "1.82 µM (inactive)"],
  ["CC1(C)O[C@@H](CO)[C@H]([C@@]23OC[C@H]4OC(C)(C)OC4[C@@H]2OC(C)(C)O3)O1 (stereo not given in full)", "> 100 µM (inactive)"],
  ["CC(O)(C(=O)N(O)c1ccc(Cl)cc1)c1ccc(Cl)cc1 (stereo not given)", "34.2 µM (inactive)"]
]}

---

# Test system: XF498
# method_summary: NCI tumour cell line growth inhibition, 48 h
Active and inactive are the calls of the source. Rule as the data show it: active = GI50 up to about 1.1 µM and inactive = higher.
Labels: true (active), false (inactive)

{"columns": ["molecule", "tested_on", "class_name"],
 "data": [
  ["COC1=CC(=O)C2C(C1=O)C(c1ccc(Cl)cc1)[C@@H]2C (stereo not given in full)", "XF498", "false"],
  ["COc1ccc(C2C(C(=O)O)=C(COC(C)=O)Oc3cc4c(cc32)OCO4)cc1 (stereo not given)", "XF498", "false"],
  ["COc1c(I)c(OC)c2c(c1I)O[C@@H]1OCC[C@H]21", "XF498", "false"],
  ["C/C(CN1C(=O)c2ccccc2C1=O)=N\\NS(C)(=O)=O", "XF498", "false"],
  ["Cc1ccc(NC(=O)C2C(=O)N(c3ccc(C)c(C)c3)C(=O)/C2=N/O)cc1C (stereo not given)", "XF498", "false"],
  ["O=S(=O)(/C=C/C(=C/c1ccccc1)S(=O)(=O)c1ccccc1)c1ccccc1", "XF498", "false"],
  ["COc1cc(C2c3cc4c(cc3[C@@H](Nc3ccc(N5CCOCC5)cc3)C3COC(=O)[C@H]23)OCO4)cc(OC)c1O (stereo not given in full)", "XF498", "true"],
  ["CCO/C=C1\\N=C(C(Cl)c2ccccc2)OC1=O (stereo not given)", "XF498", "false"],
  ["BrC1=CC=C2NC=CC3=CC=NC1C32 (stereo not given)", "XF498", "false"],
  ["CC(/C=C1\\CCC(CN(C)C)C1=O)c1cccc(Br)c1 (stereo not given)", "XF498", "false"]
]}

---

# Tested on: K562
# method_summary: NCI tumour cell line growth inhibition, 48 h
Activity calls are given as the source filed them. Cut-off read from the data, not from the text of the source: active = GI50 up to about 1.1 µM and inactive = higher.

{"columns": ["compound", "GI50"],
 "data": [
  ["O=S(=O)(N/N=C/c1cccc(Cl)c1Cl)c1ccccc1", "62.2 µM (inactive)"],
  ["CCCNC(=O)CCC(C)[C@H]1CCC2C3C(C[C@H](OC(C)=O)[C@@]21C)[C@@]1(C)CCC2(C[C@H]1C[C@H]3OC(C)=O)OOC1(CCC(C)CC1)OO2 (stereo partly drawn)", "33.2 µM (inactive)"],
  ["c1cc2c(cc1[C@@H]1OC[C@@H]3[C@H]1CO[C@H]3c1ccc3c(c1)OCO3)OCO2", "46.8 µM (inactive)"],
  ["CC(C)(C)C1=CC(=N/N=c2\\scc(-c3ccccc3)n2-c2ccccc2)C=C(C(C)(C)C)C1=O", "> 100 µM (inactive)"],
  ["CCCCCCCCCCCCCCC(O)C[N+](C)(CCO)CCO (stereo not drawn)", "4.24 µM (inactive)"],
  ["CC(=O)NC1C(OC(C)C(=O)NC(C(=O)NC(CCC(=O)NCCCNC2c3ccccc3Nc3cccc([N+](=O)[O-])c32)C(N)=O)C(C)C)C(O)C(CO)OC1(C)OCc1ccccc1 (stereo not drawn)", "0.363 µM (active)"],
  ["O=c1cnn(C2OC(CO)C(O)C2O)c(=S)[nH]1 (stereo not drawn)", "0.589 µM (active)"],
  ["C=C1OC(=O)[C@]2([C@@H](/C=C/C)C=CC(=O)[C@H]2O)[C@@H]1O", "> 100 µM (inactive)"]
]}

---

# System: UACC-62
# method_summary: NCI tumour cell line growth inhibition, 48 h
Calls of active or inactive are those of the source. Rule as the data show it: active = GI50 up to about 1.1 µM and inactive = higher.
The following compounds are shown together with reported GI50 values.
property_name: GI50

{"columns": ["compound", "tested_on", "experimental_result"],
 "data": [
  ["COc1ccc(C(c2ccc3c(c2)OCO3)N2C(=O)CCC2C(=O)O)cc1 (stereo not given)", "UACC-62", "> 100 µM (inactive)"],
  ["O=C(Cc1ccccc1)NN1C(=O)C(Cl)C1c1cccc([N+](=O)[O-])c1 (stereo not given)", "UACC-62", "31.3 µM (inactive)"],
  ["Cc1ccc2c(c1)-c1c(C#N)c(N)nc(-c3ccc(Cl)cc3)c1CCS2(=O)=O", "UACC-62", "4.37 µM (inactive)"],
  ["O=C(O)c1ccccc1C(=O)c1ccco1", "UACC-62", "> 100 µM (inactive)"],
  ["O=C1c2ccccc2-c2nnc(-c3ccc([N+](=O)[O-])cc3)cc21", "UACC-62", "> 10 µM (inactive)"]
]}

---

# Test system: OVCAR-4
# method_summary: NCI tumour cell line growth inhibition, 48 h
Activity calls are given as the source filed them. No stated cut-off is given here; in the data, active = GI50 up to about 1.1 µM and inactive = higher.
Labels: active, inactive

{"columns": ["molecule", "class_name"],
 "data": [
  ["Cc1c(Cc2ccccc2)n(C(C)OCCN(OC(=O)Oc2ccccc2)C(=O)Oc2ccccc2)c(=O)[nH]c1=O (stereo not given)", "inactive"],
  ["Cc1c(-c2ccc(O)cc2)n(CCCCCCNCCOC(=O)NCCCc2ccc(N(CCCl)CCCl)cc2)c2ccc(O)cc12", "inactive"],
  ["COc1c(I)c(OC)c2c(c1I)O[C@@H]1OCC[C@H]21", "inactive"],
  ["CC(C)CC1c2[nH]c3ccccc3c2C[C@H]2C(=O)NC(CCCCNC(=O)OC(C)(C)C)C(=O)N12 (stereo not given in full)", "inactive"],
  ["CCCCCCCCCC(=O)Oc1cccc2onc(C)c12", "inactive"],
  ["O=c1ccn(CC2(CO)CC(Cc3ccccc3)C2)c(=O)[nH]1 (stereo not given)", "inactive"],
  ["CCOC(=O)CCC(C(=O)OCC)n1nnc2ccc(Nc3c(C)[n+]([O-])c4cc(Cl)ccc4[n+]3[O-])cc21 (stereo not given)", "inactive"],
  ["CC(CCCCNC(=O)OC(C)(C)C)NC(=O)NC(C)CCCCNC(=O)OC(C)(C)C (stereo not given)", "inactive"],
  ["CN(C)CCNC(=O)c1ccc2nc3c(nc2c1)C(=O)c1ccccc1-3", "inactive"],
  ["COc1cc2cc(C(=O)N3CC(CCl)c4c3cc(N(C)C)c3ccccc43)[nH]c2c(OC)c1OC (stereo not given)", "active"],
  ["COc1cccc2c1C(=O)c1c(O)c3c(c(O)c1C2=O)C[C@@](O)(/C(C)=N\\O)C[C@@H]3OC1CC(N)C(O)C(C)O1 (stereo not given in full)", "inactive"],
  ["Cc1ccc(S(=O)(=O)NN=C2C(C)CC(C(C)(C)C)CC2C)cc1 (stereo not given)", "inactive"],
  ["COc1cccc(/N=N/N2CCCC2)c1", "inactive"],
  ["COC(=O)C1(CCCCl)CCCN1C(=O)OC(C)(C)C (stereo not given)", "inactive"],
  ["O=C(NC/C(Cl)=C/Cl)Nc1c2ccccc2nc2ccccc12", "inactive"],
  ["CC(=O)N1CCn2c1nc1cc(Cl)ccc12", "inactive"],
  ["CCCc1cc(O)c2c(C)c3[nH]c4ccc(Cl)cc4c3c(C)c2n1", "inactive"],
  ["Cc1ccc(S(=O)(=O)N/N=C(/CC(=O)c2c(C)[n+]([O-])c3ccccc3[n+]2[O-])C(=O)Nc2ccccc2C)cc1", "inactive"],
  ["CC1=NN(C(=O)CC(=O)Nc2ccccc2)C(=O)C1/N=N/c1ccc(S(N)(=O)=O)cc1 (stereo not given)", "inactive"],
  ["O=C1OC(c2ccccc2)=N/C1=C\\c1ccc(Cl)cc1", "inactive"]
]}
